pKi: −log10 of the molar value. Counter-ions that a name gives are not always drawn.
human 5-HT5A receptor (Homo sapiens) pKi data
Sequence (P47898 whole entry): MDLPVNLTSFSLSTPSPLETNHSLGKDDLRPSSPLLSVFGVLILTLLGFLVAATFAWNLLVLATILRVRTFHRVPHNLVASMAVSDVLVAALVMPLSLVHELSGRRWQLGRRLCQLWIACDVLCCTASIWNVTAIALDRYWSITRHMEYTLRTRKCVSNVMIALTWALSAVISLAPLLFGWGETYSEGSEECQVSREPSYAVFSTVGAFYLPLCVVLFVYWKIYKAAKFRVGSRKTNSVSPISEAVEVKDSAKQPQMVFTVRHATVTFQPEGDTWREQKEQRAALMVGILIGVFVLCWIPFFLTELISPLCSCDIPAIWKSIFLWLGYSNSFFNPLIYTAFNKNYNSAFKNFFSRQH

Consider the worked cases shown below.
COc1ccccc1C1=CC(C)(C)Oc2ccc(C(=O)N=C(N)N)cc21 [Example 1-01, hydrochloride] :: 6.52 to 7.52
CC1=C(c2ccc(C#N)cc2)c2cc(C(=O)N=C(N)N)ccc2CC1 :: 8.52 to 9.52
CC1C=C(c2cccnc2)c2cc(C(=O)N=C(N)N)ccc2O1 (stereo not drawn) :: 6.52 to 7.52

Request: What measured pKi is associated with COc1ccc(-c2csc3ccc(C(=O)N=C(N)N)cc23)cc1 on human 5-HT5A receptor (Homo sapiens)?
Response: 7.52 to 8.52

Request: What measured pKi is associated with Cn1cc(C2=CCCc3ccc(C(=O)N=C(N)N)cc32)ccc1=O on human 5-HT5A receptor (Homo sapiens)?
Response: 6.52 to 7.52

Request: What measured pKi is associated with N#Cc1ccccc1-c1csc2ccc(C(=O)N=C(N)N)cc12 on human 5-HT5A receptor (Homo sapiens)?
Response: 7.52 to 8.52

Measured values drawn from patent US20110207729A1 for this set.
